# assaySummary: non-covalent RecA intein splicing inhibitors, dose response, biochemical, cell-free, fluorescence, secondary screen (AID 449750)
The source made the active and inactive calls. How the calls were made is not given here.
Labels: T for active, F for inactive

| molecule | categoryLabel |
| --- | --- |
| Cc1nc2ccccc2nc1N/N=C/c1ccc(O)cc1O | F |
| O=[N+]([O-])c1ccc(O)c2ncccc12 | T |
| FC(F)(F)c1nnc(-c2ccccc2)nc1Oc1ccc(Cl)cc1Cl | F |
| O=C(CCl)NCc1c(Cl)cccc1-n1cccc1 | T |
| COc1ccc(C(C[N+](=O)[O-])c2c(C)[nH]n(-c3ccccc3)c2=O)cc1 (centres undefined) | T |
| Cc1[nH]nc2c1C1(CCN(C(=O)c3ccccc3)CC1)C(C#N)=C(N)O2 | F |
| CCOc1cc(/C=N\NC(=O)OC(C)(C)C)ccc1OC(=O)c1ccco1 | F |
| Cc1noc2ncnc(Sc3ccccc3Cl)c12 | F |
| CCn1c(COc2cccc3ccccc23)nnc1SCC(N)=O | F |
| COc1ccc(OC)c(N2C(=O)C(Cl)=C(N3CCCCC3)C2=O)c1 | F |
| CCOC(=O)C1(CCOc2ccccc2)CCN(Cc2ccc(O)c(Cl)c2)CC1 | F |
| CCCCN(C(=O)c1cccc2c(=O)c(C)c(-c3ccccc3)oc12)c1ccccc1 | T |
| CCOC(=O)c1cnc(N)nc1C(F)(F)F | F |
| CCc1ccc(S(=O)(=O)/N=C2\C=C(Nc3ccc(C(=O)O)cc3)C(=O)c3ccccc32)cc1 | T |
| COc1ccc(/C=C2\SC(=S)N(CCCC(=O)Nc3ccc(O)cc3)C2=O)cc1 | F |
| COc1ccc(C(c2c(C)[nH]n(-c3ccccc3)c2=O)c2c(C)[nH]n(-c3ccccc3)c2=O)cc1OC | T |
| CCN(CC)C(=O)CSc1nnc2nnc3cc(Cl)ccc3n12 | F |
| Cc1nn(-c2ccccc2)c(Cl)c1/C=C1\SC(=S)N(CCCCCC(=O)O)C1=O | T |
| CCOC(=O)c1c(C)[nH]c2c1-c1ccccc1C(=O)C2=O | T |
| O=C1CCN(S(=O)(=O)c2ccccc2)N1 | F |
| O=C(O)c1ccc(-n2c(=O)c3ccccc3c3ccccc3c2=O)cc1 | F |
| COc1cc(/C=C2/C(=O)N(c3ccccc3)N=C2C)ccc1OS(=O)(=O)c1ccccc1 | T |
| Cc1ccc(C(=O)C2C(c3ccc(-c4ccccc4[N+](=O)[O-])o3)NC(=O)NC2(O)C(F)(F)F)cc1 (centres undefined) | T |
| Cc1nnc(Sc2cc(NCCO)c([N+](=O)[O-])c3nonc23)s1 | F |
| NS(=O)(=O)c1ccc(NC2=CC(=O)C(=O)c3ccccc32)cc1 | T |
| CC1(C)N=C(SCC(=O)Nc2ccc(Cl)cc2)C(c2ccc(Cl)cc2)=N1 | T |
| O=C(Nc1ccccc1)NN(C(=O)CCl)c1ccccc1 | T |
| CCOC(=O)/C=c1\s/c(=C(\C#N)C(N)=O)n(-c2ccccc2)c1=O | F |
| O=C1C=C(N(CCO)Cc2ccccc2)c2ccccc2C1=O | T |
| O=c1[nH]cc(N=Cc2cc([N+](=O)[O-])ccc2O)c(=O)[nH]1 | F |
| Cc1ccccc1CS(=O)(=O)c1nnc([C@H](Cc2ccccc2)NC(=O)OC(C)(C)C)o1 | F |
| Cc1cc(C(=O)CCl)c(C)n1CCc1ccc(Cl)cc1 | T |
| CCOc1ccc(N2C(=O)/C(=C\c3ccc(OC)c(O)c3)S(=O)(=O)C2c2cccc([N+](=O)[O-])c2)cc1 (centres undefined) | F |
| O=C1C=Cc2ccccc2C1=O | T |
| COc1ccc(-n2c3nc4ccccc4nc3c3c(=N)oc(C)nc32)cc1 | F |
| FC(F)(F)c1nnc(-c2ccccc2)nc1Sc1ccccc1 | F |
| COc1cc(N=Nc2cccc(S(N)(=O)=O)c2)c2ccccc2c1N | T |
| O=C(CCl)Nc1ccc(N=Nc2ccccc2)cc1 | T |
| Cc1noc2ncnc(Sc3ccc(Br)cc3)c12 | T |
| COc1ccc(CN(C(=O)CSc2nnc(-c3ccccc3C)o2)c2ccc(F)cc2)cc1 | T |
| CCN(CC)CCNC(=O)c1ccc2c(c1NCCO)C(=O)c1ccccc1C2=O | T |
| Cc1nn(-c2ccccc2)c2c1C(c1ccc(F)cc1)C(C#N)=C(N)O2 (centres undefined) | T |
| CCc1nc(N2CCN(C(=O)CCl)CC2)c2c3c(sc2n1)CC(C)CC3 (centres undefined) | T |
| Nc1ccc2nc(CCCCc3nc4ccccc4[nH]3)[nH]c2c1 | F |
